Where do the numbers come from? From PubChem BioAssay.

The entries below are paired with their reported composite z-score.
- tested-target: Calmodulin-1 (Homo sapiens)
- assay-explanation: small molecules binding Ca-loaded calmodulin-1 – biochemical, small-molecule microarray, Cy5-labelled CALM1, plus calcium, artefact control for SMM control-protein annotation, profiling panel (AID 1112);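 further: score merges spot fluorescence with signal to noise from triplicate slides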
- test-parameters: Cy5-CALM1 binding fluorescence, higher = more signal

{"compound": "O=C(N1CCCCC1)[C@]1(CCS(=O)(=O)c2ccccc2)N=C(c2ccc(OCCCO)cc2)O[C@@H]1c1ccccc1", "composite z-score": 1.02}
{"compound": "CN1C(=O)C2C=CC(C(O)C3=C[C@H]4C[C@@H](C3)C4(C)C)N(Nc3ccc([N+](=O)[O-])cc3[N+](=O)[O-])C2C1=O (some centres undefined)", "composite z-score": 0.616}
{"compound": "C=CCN1C(=O)[C@]2(Cc3ccccc31)N=C(c1ccc(OCCCO)cc1)O[C@@H]2c1ccccc1", "composite z-score": -0.313}
{"compound": "CC(C)[Si]1(C(C)C)O[C@@H](c2ccccc2)c2cc(-c3ccc(-c4ccc(Cl)c(Cl)c4)o3)nc(CCc3ccccc3)c21", "composite z-score": 0.873}
